All figures here come from PubChem BioAssay (EPA / NIEHS).

Experiment: ATG_PPRE_CIS: Attagene CIS-FACTORIAL HepG2 Assay for human Peroxisome Proliferator-activated Response Element (PPRE) (AID 2282958)
Settings: HepG2 PPRE cis-element reporter, Attagene transcription factor profiling; actives raise or lower the signal
Activity calls are given as the source filed them. The calls were made as follows: active = hit-call score of the fitted dose curve at least 0.9, where 1 is the maximum; inactive = score below 0.9.
Your reply should match one of these outcome classes. active, inactive

> print(dat)
                                smiles.code  category.label
1              c1ccc(C[n+]2cccc3ccccc32)cc1        inactive
2  COc1cccc([C@H](O)C2CCN(CCc3ccc(F)cc3)CC2)c1OC        inactive
3                CCCOC(=O)c1cc(O)c(O)c(O)c1          active

Query: recorded result category for "O=C1CCC(C2CCCCC2)CC1" in this test
inactive

Same question for "Oc1ccccc1" please.
inactive

---

Molecular target: Bile acid receptor (Homo sapiens) (UniProt Q96RI1)
Sequence (Q96RI1 whole entry, looked up): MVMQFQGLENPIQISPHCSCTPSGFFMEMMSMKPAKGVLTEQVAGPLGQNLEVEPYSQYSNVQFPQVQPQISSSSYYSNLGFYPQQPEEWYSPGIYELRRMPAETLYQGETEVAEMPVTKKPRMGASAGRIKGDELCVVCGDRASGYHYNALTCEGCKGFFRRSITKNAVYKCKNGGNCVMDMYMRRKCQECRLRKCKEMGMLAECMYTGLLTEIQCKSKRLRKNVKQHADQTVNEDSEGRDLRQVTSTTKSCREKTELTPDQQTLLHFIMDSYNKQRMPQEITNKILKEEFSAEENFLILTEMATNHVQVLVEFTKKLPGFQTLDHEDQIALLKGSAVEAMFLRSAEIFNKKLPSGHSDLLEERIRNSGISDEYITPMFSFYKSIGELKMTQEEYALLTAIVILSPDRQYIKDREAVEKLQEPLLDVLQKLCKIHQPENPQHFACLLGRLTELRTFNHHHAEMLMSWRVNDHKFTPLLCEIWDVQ
Assay: NVS_NR_hFXR_Antagonist: NovaScreen (NVS) Nuclear Receptor Binding Assay for human Farnesoid X Receptor Antagonism (FXR) (AID 2283350)
Inconclusive results are not listed. Activity calls are given as the source filed them. How the source made its calls: active means hit-call score of the fitted dose curve at least 0.9, where 1 is the maximum; inconclusive means response in the unintended direction; inactive means score below 0.9.
# valid calls are true (active), false (inactive); nothing else

Record request — test call for CN1C(=O)N(c2ccccc2Br)Cc2cnc(Nc3ccc4c(c3)OCC(CO)O4)nc21 (configuration not stated)
true

Can you handle "CCN(Cc1cccc(S(=O)(=O)O)c1)c1ccc(C(=C2C=CC(=[N+](CC)Cc3cccc(S(=O)(=O)O)c3)C=C2)c2ccccc2S(=O)(=O)[O-])cc1" next?
false

Note, next up: "O=C(O)c1ccccc1C(=O)OCc1ccccc1"
false

One more compound: "CCO[Si](CCCNC(N)=O)(OCC)OCC"
false

---

Quick reference: AC50 of the listed items.
Target: human CYP2D6, CYP2D6 (gene 1565) (UniProt P10635)
Sequence (P10635 whole entry, looked up): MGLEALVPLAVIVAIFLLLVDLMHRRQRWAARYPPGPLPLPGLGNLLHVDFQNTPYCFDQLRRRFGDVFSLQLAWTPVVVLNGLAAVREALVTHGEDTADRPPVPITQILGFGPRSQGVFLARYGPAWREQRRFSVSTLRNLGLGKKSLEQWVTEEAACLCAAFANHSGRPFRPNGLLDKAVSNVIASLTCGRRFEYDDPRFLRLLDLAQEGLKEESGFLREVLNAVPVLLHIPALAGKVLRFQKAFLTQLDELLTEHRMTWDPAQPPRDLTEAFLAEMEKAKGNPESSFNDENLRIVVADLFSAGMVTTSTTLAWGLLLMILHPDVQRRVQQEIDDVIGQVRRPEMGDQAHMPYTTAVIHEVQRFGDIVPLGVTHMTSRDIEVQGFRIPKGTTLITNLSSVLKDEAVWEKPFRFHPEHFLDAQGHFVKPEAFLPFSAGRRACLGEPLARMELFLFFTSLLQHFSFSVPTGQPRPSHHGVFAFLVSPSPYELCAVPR
Assay: NVS_ADME_hCYP2D6: NovaScreen (NVS) CYP450-related Enzyme Activity (ADME) Assay for human CYP2D6 (AID 2283107)
Activity calls are given as the source filed them. The calls were made as follows: active = hit-call score of the fitted dose curve at least 0.9, where 1 is the maximum; inconclusive = response in the unintended direction; inactive = score below 0.9.

# get_value(readout= AC50, system= human CYP2D6, CYP2D6 (gene 1565) (UniProt P10635)) for "Clc1ccccc1C(c1ccccc1)(c1ccccc1)n1ccnc1"
3.72 µM (active)

Input "O=C1c2ccccc2C(=O)N1CCc1noc(-c2ccc(CN3CCCCCC3)s2)n1"
6.57 µM (active)

And what about the molecule "NCc1cccc(C2CCN(C(=O)c3ccc(C#Cc4ccccc4F)o3)CC2)c1" ?
6.76 µM (active)

# iterate: "CCCCCCCCCCCC[N+](C)(C)C"
7.58 µM (active)

Input "COc1ccc2cc(S(=O)(=O)N[C@H](CC(=O)N[C@H](Cc3ccc(CN4[C@H](C)CCC[C@@H]4C)cc3)C(=O)N(C)C(C)C)c3ccc4c(c3)OCO4)ccc2c1"
0.305 µM (active)

---

Read-out: Pro-epidermal growth factor (Homo sapiens) (UniProt P01133)
Test: LTEA_HepaRG_EGF: Life Technologies and Expression Analysis (LTEA) Assay for Epidermal growth factor (EGF) using HepaRG (AID 2283489)
Conditions: mRNA level, 48 h; actives raise or lower the signal
Activity calls are given as the source filed them. How the source made its calls: active means hit-call score of the fitted dose curve at least 0.9, where 1 is the maximum; inactive means score below 0.9.
Parameter call: string, one of class 1 for active, class 0 for inactive

Worked examples follow.
Compound	Category label
O=C(O)Cc1cc(I)c(Oc2ccc(O)c(I)c2)c(I)c1	class 0
CC[C@H](NC(=O)c1cc(F)ccc1NS(=O)(=O)c1cccc2cccnc12)c1ccccc1	class 1
CCCCOC(=O)CC(CC(=O)OCCCC)(OC(C)=O)C(=O)OCCCC	class 0
CCN(Cc1cccnc1)C(=O)c1cccc(Cl)c1[C@]1(C)C(=O)N(Cc2ccc(OC)cc2OC)c2ccc(Cl)cc21	class 1
O=C(Nc1ccc(Cl)cc1)Nc1ccc(Cl)c(Cl)c1	class 1
c1ccc(C[n+]2cccc3ccccc32)cc1	class 0
CCCC(=O)OCCC(C)C	class 0
O=C(OCCCCCCOC(=O)c1ccccc1)c1ccccc1	class 0
CO[C@H]1/C=C/O[C@@]2(C)Oc3c(C)c(O)c4c(O)c(c(/C=N/N5CCN(C)CC5)c(O)c4c3C2=O)NC(=O)/C(C)=C\C=C\[C@H](C)[C@H](O)[C@@H](C)[C@@H](O)[C@@H](C)[C@H](OC(C)=O)[C@@H]1C	class 0
O=C(O)Cn1c(=O)n(Cc2ccc(Br)cc2F)c(=O)c2ccc(Cl)cc21	class 0

Given "CCCCCCCCOc1ccc(C(=O)c2ccccc2)c(O)c1" , state the outcome it received in this test.
class 0

Same question, "Cc1cc(F)ccc1-c1cc(N2CC[C@@H](O)[C@H]2CO)ncc1N(C)C(=O)C(C)(C)c1cc(C(F)(F)F)cc(C(F)(F)F)c1" this time
class 1

Same question for "CCCCCc1ccc(N)cc1" please.
class 0

Try "O=c1c(-c2ccc(O)cc2)coc2cc(O)cc(O)c12" next.
class 0

Next entry: "O=C1CCC(C2CCCCC2)CC1"
class 0

Queued: "CCN(Cc1cccc(S(=O)(=O)O)c1)c1ccc(C(=C2C=CC(=[N+](CC)Cc3cccc(S(=O)(=O)O)c3)C=C2)c2ccccc2S(=O)(=O)[O-])cc1"
class 0

---

Read-out: Early growth response protein 1 (EGR1) transcription factor, EGR1 (gene 1958)
Experiment: LTEA_HepaRG_EGR1: Life Technologies and Expression Analysis (LTEA) Assay for Early growth response protein 1 (EGR1) transcription factor using HepaRG (AID 2283490)
Details: mRNA level, 48 h; actives raise or lower the signal
Activity calls are given as the source filed them. The calls were made as follows: active = hit-call score of the fitted dose curve at least 0.9, where 1 is the maximum; inactive = score below 0.9.
Readout: AC50

Answered cases to consult:
> print(dat)
                                   molecule   observed.result
1                              CCCCCCCCCCCO          inactive
2                      O=C1CCC(C2CCCCC2)CC1          inactive
3                      CCCCCCCCN(C)CCCCCCCC          inactive
4  COc1ccc2cc(S(=O)(=O)N[C@H](CC(=O)N[C@H](Cc3ccc(CN4[C@H](C)CCC[C@@H]4C)cc3)C(=O)N(C)C(C)C)c3ccc4c(c3)OCO4)ccc2c1  33.3 µM (active)
5  Cc1cc2c(cc1C(F)(F)F)N(C(=O)Nc1ccc(Oc3cccnc3C)nc1)CC2          inactive
6  CC(C)(C)c1csc(-c2cc3cc(OCc4ccccc4CC(=O)O)ccc3o2)n1  89.5 µM (active)
7                  CN1C(=O)CC[C@H]1c1cccnc1          inactive
8           O=C1O[C@H]([C@@H](O)CO)C(O)=C1O          inactive

Query (molecule): "CC/C(=C(/CC)c1ccc(O)cc1)c1ccc(O)cc1" ; field requested: AC50
77.4 µM (active)

Repeat with OC12N=C(c3ccccc3)SC1Cc1cc(Cl)ccc12 (centres undefined)
inactive

Request: "O=C=NCCCCCCN=C=O"
inactive

Repeat for the following molecule: "CCCC(=O)OCCC(C)C"
inactive

Request: "O=C(OCCCCCCOC(=O)c1ccccc1)c1ccccc1"
inactive

Ok, now "OCCO"
inactive

---

Assay: NVS_IC_rCaDHPRCh_L: NovaScreen (NVS) Ion Channel Assay for rat Calcium Channel, Type L, Dihydropyridine Site (CaDHPRCh_L) (AID 2283320)
Inconclusive results are not listed. Active and inactive are the calls of the source. How the source made its calls: active means hit-call score of the fitted dose curve at least 0.9, where 1 is the maximum; inconclusive means response in the unintended direction; inactive means score below 0.9.
Readout: AC50

Here is how some molecules turned out for AC50.
> print(dat)
                                smiles.code  readout    observed.result
1                      CCCCCCCCN(C)CCCCCCCC     AC50   16.4 µM (active)
2  O=C1c2ccccc2C(=O)N1CCc1noc(-c2ccc(CN3CCCCCC3)s2)n1     AC50    6.2 µM (active)
3  COc1cccc([C@H](O)C2CCN(CCc3ccc(F)cc3)CC2)c1OC     AC50     25 µM (active)
4  CN(C)c1ccc(C(=C2C=CC(=[N+](C)C)C=C2)c2ccc(N(C)C)cc2)cc1     AC50   4.99 µM (active)
5  NCc1cccc(C2CCN(C(=O)c3ccc(C#Cc4ccccc4F)o3)CC2)c1     AC50   21.1 µM (active)
6  CN(C)C(=O)C1(N2CCCCC2)CCN(CC[C@@]2(c3ccc(Cl)c(Cl)c3)CN(C(=O)c3ccccc3)CCO2)CC1     AC50  0.655 µM (active)

Now look at this entry.
Requested field: AC50. Item: "CCOC(=O)O[C@H](C)OC(=O)c1ccc2c(c1)cc(C(=O)NC1CCN(C(C)C)CC1)n2Cc1cc(-c2ccc(Cl)s2)on1"
9.36 µM (active)

---

Read-out: Macrophage colony-stimulating factor (MCSF), CSF1 (gene 1435)
Assay: BSK_LPS_MCSF: BioMAP Diversity Plus: LPS Assay for Macrophage colony-stimulating factor (MCSF) Biomarker Activity (AID 2283083)
Conditions: primary human HUVEC with PBMC; actives raise or lower the signal
Calls of active or inactive are those of the source. The calls were made as follows: active = hit-call score of the fitted dose curve at least 0.9, where 1 is the maximum; inactive = score below 0.9.
Outcomes you can answer with include only these: active, inactive

Molecule	Category label
Clc1ccccc1C(c1ccccc1)(c1ccccc1)n1ccnc1	active
CCCCCCCC[Si](OCC)(OCC)OCC	inactive
Cc1cn([C@H]2C[C@H](N=[N+]=[N-])[C@@H](CO)O2)c(=O)[nH]c1=O	inactive
C[C@]12CC[C@@H]3c4ccc(O)cc4CC[C@H]3[C@@H]1CCC2=O	inactive
Cc1cccc2ccccc12	inactive
CO[C@H]1/C=C/O[C@@]2(C)Oc3c(C)c(O)c4c(O)c(c(/C=N/N5CCN(C)CC5)c(O)c4c3C2=O)NC(=O)/C(C)=C\C=C\[C@H](C)[C@H](O)[C@@H](C)[C@@H](O)[C@@H](C)[C@H](OC(C)=O)[C@@H]1C	inactive

Assay outcome for "CCCCOC(=O)c1ccc(O)cc1" : what was it?
inactive

Try this molecule next: "c1ccc(C[n+]2cccc3ccccc32)cc1"
inactive
